Target: Protein phosphatase 3 catalytic subunit alpha (Homo sapiens, UniProt Q08209); note: in other assays of this panel Not Active means under 50% inhibition at 10 µM;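 note: inhibition of calcineurin (PP2B) enzyme activity, measured with DiFMUP as the substrate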
Set-up: species or system Escherichia coli

compound: CC(C)NCC(O)COc1cccc2ccccc12 (stereo not drawn) [PROPRANOLOL]
IC50: Not Active
//
compound: C[C@H]1O[C@@H](O[C@H]2[C@@H](O)C[C@H](O[C@H]3[C@@H](O)C[C@H](O[C@H]4CC[C@@]5(C)[C@H](CC[C@@H]6[C@@H]5CC[C@]5(C)[C@@H](C7=CC(=O)OC7)CC[C@]65O)C4)O[C@@H]3C)O[C@@H]2C)C[C@H](O)[C@@H]1O [DIGITOXIN]
IC50: Not Active
//
compound: COc1ccc2c(c1)[C@]13CCCC[C@@H]1[C@H](C2)N(C)CC3 [DEXTROMETHORPHAN]
IC50: Not Active
//
compound: CC1=C(C(=O)O)N2C(=O)[C@@H](NC(=O)[C@H](N)c3ccccc3)[C@H]2SC1 [CEPHALEXIN ANHYDROUS]
IC50: Not Active
//
compound: CC[C@]1(O)C[C@@H]2CN(CCc3c([nH]c4ccccc34)[C@@](C(=O)OC)(c3cc4c(cc3OC)N(C)[C@H]3[C@@](O)(C(=O)OC)[C@H](OC(C)=O)[C@]5(CC)C=CCN6CC[C@]43[C@@H]65)C2)C1 [VINBLASTINE]
IC50: Not Active
//
compound: Cc1cc(C)nc(NS(=O)(=O)c2ccc(N)cc2)n1 [SULFAMETHAZINE]
IC50: Not Active
//
compound: CC(=O)Nc1cccc(O)c1 [METACETAMOL]
IC50: Not Active
//
compound: CC[C@@H](CO)NCCN[C@@H](CC)CO [ETHAMBUTOL]
IC50: Not Active
